Cited source for all entries: PubChem BioAssay (NCI)

# System: SNB-19 CNS
# protocolSummary: NCI tumour cell line growth inhibition, 48 h
endpointLabel: TGI

COc1cc(/C=C2\N=C(c3ccccc3)N(c3cc4cc(Sc5ccccc5)ccc4[nH]3)C2=O)ccc1O: > 50 µM
OC(Cc1cccc2ccccc12)CN1CCC(c2ccccc2)CC1 (stereo not given): 26.3 µM
Cc1c2oc(=O)c(C#N)cc2c2ccccn12: > 100 µM
Clc1cc(Cl)nc(Nc2ccc3c(c2)CCC3)n1: > 100 µM

Next compound, TGI to be filled in.
Output TGI of COc1ccc(-c2nc(-c3cnccn3)n(C/C=C/c3ccccc3)n2)cc1
> 100 µM

====

# Tested on: HOP-92 NSCLC
# protocolSummary: NCI tumour cell line growth inhibition, 48 h; in the data active = GI50 below about 0.43 µM; inactive = the rest
Log the outcome using a class from active, inactive

Take a look at these entries with their results.
CN(CCOc1ccc(NS(C)(=O)=O)cc1)CCc1ccc(NS(C)(=O)=O)cc1: inactive
Cn1cc(-c2csc(-c3ccc(Cl)cc3)n2)c2cccnc21: inactive

I would be grateful if you could indicate the recorded call for CCN(CC)c1ccc(/C=N/N=C(N)N)cc1 .
inactive

====

# Tested on: NCI-H460 lung
Log the outcome using a class from active, inactive

COC(=O)c1c(C(=O)O)c(-c2ccccc2)c(-c2ccccc2)c(-c2ccccc2)c1-c1ccccc1: inactive

I would be grateful if you could indicate the recorded call for O=C(NCc1cn(Cc2cccc(Oc3ccccc3)c2)nn1)c1cccnc1NCc1ccc(Cl)cc1 .
inactive

I would be grateful if you could indicate the recorded call for CC(C)=CC(=O)OC1C2C(C)=CC(=O)C(O)C2(C)C2C3(O)OCC24C(CC(=O)OC14)C(C)C3O (centres undefined) .
active

I would be grateful if you could indicate the recorded call for CCN(CC)CC[n+]1ccc2c(C)c3[nH]c4ccccc4c3c(C)c2c1 .
active

====

# System: HOP-62 NSCLC
# protocolSummary: NCI tumour cell line growth inhibition, 48 h
endpointLabel: TGI (µM)
Write the answer as a number in µM, unit excluded.

Please review the entries below; each comes with its answer.
O=S1(=O)CCC2=CC(C(F)(F)F)=CC(C(F)(F)F)=CN21: 4.88
Cc1nc(C(=O)OCc2ccccc2)cc(OCc2ccccc2)c1C: 40.7

Output TGI of COc1ccc(-c2nc(-c3cnccn3)n(C/C=C/c3ccccc3)n2)cc1
60.3

====

# Test system: SNB-19 CNS
# protocolSummary: NCI tumour cell line growth inhibition, 48 h
endpointLabel: TGI (µM)
Write the answer as a number in µM, unit excluded.

Give TGI only, for COc1ccc2c(CN3CCCC[C@H]3O)cc3cc4c(cc3c2c1)OCO4 , using SNB-19 CNS data.
7.45

Give TGI only, for Cc1oc(N)c(S(=O)(=O)/C(C#N)=C/c2ccccc2[N+](=O)[O-])c1C , using SNB-19 CNS data.
77.4

Give TGI only, for CC(C)(C)OC(=O)NCCCCCCCCCCCCn1c2c(c3ccccc3c1=O)C(=O)c1ccccc1-2 , using SNB-19 CNS data.
83.5

====

# Test system: SN12C renal
# protocolSummary: NCI tumour cell line growth inhibition, 48 h; in the data active = GI50 below about 0.43 µM; inactive = the rest
Log the outcome using a class from 1.0 = active, 0.0 = inactive

Take a look at these entries with their results.
CCN(CC)CC[n+]1ccc2c(C)c3[nH]c4ccccc4c3c(C)c2c1: 1.0
COc1c(OC2OC(C)C(O)C(O)C2O)c(OC)c2oc(-c3ccc(O)cc3)cc(=O)c2c1O (stereo not drawn): 0.0

For the next question, use this compound.
I would be grateful if you could indicate the recorded call for C/C(=N\NC(=S)N1CCCC1)c1ccccn1 .
1.0
